test: Pharmacokinetics after oral capsules (sCT plus Dmt-DALDA with citric acid and lauroyl carnitine), non-enteric coated or enteric coated, in fasted beagle dogs (plasma; ELISA for sCT, HPLC-MS for Dmt-DALDA); type: in vivo; conditions: beagle, dog, plasma, oral, Enteric Capsule, Avg (n = 3); normalized to a 1 mg dose
Test Readout: Cmax (ng/mL)

# Compound, Recorded Number
records = [
    ("Cc1cc(O)cc(C)c1C[C@H](N)C(=O)N[C@H](CCCNC(=N)N)C(=O)N[C@@H](Cc1ccccc1)C(=O)N[C@@H](CCCCN)C(N)=O [Dmt-DALDA]", 21),
]

====

test: Pharmacokinetics after oral capsules (sCT plus Dmt-DALDA with citric acid and lauroyl carnitine), non-enteric coated or enteric coated, in fasted beagle dogs (plasma; ELISA for sCT, HPLC-MS for Dmt-DALDA); assay type: in vivo; conditions: beagle, dog, plasma, oral, Enteric Capsule, Dog 4

# Compound, Tmax [h]
rows = [
    ("Cc1cc(O)cc(C)c1C[C@H](N)C(=O)N[C@H](CCCNC(=N)N)C(=O)N[C@@H](Cc1ccccc1)C(=O)N[C@@H](CCCCN)C(N)=O [Dmt-DALDA]", 2),
]
